The reader will find reported percent scFv-conjugate (not liposome-bound) EphA2 binding on-rate values listed item by item below.
target: T1, His6-tagged recombinant human EphA2 protein (human, UniProt P29317 25-534); experiment: BLI (Octet Red 96); His6-EphA2 on anti-His sensors; slope of association curve of scFv-PEG-DSPE conjugate; TS1C printed as 100
T1 construct: also called his-tagged recombinant, human EphA2; human EphA2 with c-terminal His6
T1 sequence (P29317 25-534 limits assumed): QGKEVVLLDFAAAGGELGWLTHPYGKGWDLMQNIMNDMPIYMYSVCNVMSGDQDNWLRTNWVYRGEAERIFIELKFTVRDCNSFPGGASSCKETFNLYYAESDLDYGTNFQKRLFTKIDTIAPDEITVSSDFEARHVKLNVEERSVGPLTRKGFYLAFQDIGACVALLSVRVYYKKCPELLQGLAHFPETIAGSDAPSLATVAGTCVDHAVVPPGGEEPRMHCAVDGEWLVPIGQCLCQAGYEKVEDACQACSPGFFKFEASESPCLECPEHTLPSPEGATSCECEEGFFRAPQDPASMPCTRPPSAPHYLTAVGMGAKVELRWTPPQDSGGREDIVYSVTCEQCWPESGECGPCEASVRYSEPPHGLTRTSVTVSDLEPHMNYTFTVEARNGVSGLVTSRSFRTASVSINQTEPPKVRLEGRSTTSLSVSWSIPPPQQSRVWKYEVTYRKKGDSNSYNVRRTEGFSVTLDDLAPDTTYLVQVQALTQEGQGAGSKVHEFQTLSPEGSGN
Quick note: give the figure in %, leave out the unit.

binder	recorded-value
scFv-10C (scFv, also called clone 10) scFv: QVQLVQSGGGLVQPGGSLRLSCAASGFTFSSYAMHWVRQAPGKGLEWVSAISPPGHNTYYADSVKGRFTISRDNSKNTLYLQMNSLRAEDTAVYYCARASVGATGPFDIWGQGTLVTVSSASTGGGGSGGGGSGGGGSGGGGSSSELTQPPSVSVAPGQTVTITCQGDSLRSYYASWYQQKPGTAPKLLIYGENNRPSGVPDRFSGSSSGTSASLTITGAQAEDEADYYCNSRDSSGTHLTVFGGGTKLTVLGGGSGGC	104
scFv-19C (scFv) scFv: QVQLVQSGGGLVQPGGSLRLSCAASGFTFSSYAMHWVRQAPGKGLEWVSVISPPGHNTYYADSVKGRFTISRDNSKNTLYLQMNSLRAEDTAVYYCARASVGATGPFDIWGQGTLVTVSSASTGGGGSGGGGSGGGGSGGGGSSSELTQPPSVSVAPGQTVTITCQGDSLRSYYASWYQQKPGTAPKLLIYGENNRPSGVPDRFSGSSSGTSASLTITGAQAEDEADYYCNSRDSSGTHLTVFGGGTKLTVLGGGSGGC	112

With those in mind, consider the next binder.
Input line: Entry scFv-9C (scFv, also called clone 9) scFv: QVQLVQSGGGLVQPGGSLRLSCAASGFTFSSYAMHWVRQAPGKGLEWVTVISPNGHNTYYADSVKGRFTISRDNSKNTLYLQMNSLRAEDTAVYYCARASVGATGPFDIWGQGTLVTVSSASTGGGGSGGGGSGGGGSGGGGSSSELTQPPSVSVAPGQTVTITCQGDSLRSYYASWYQQKPGTAPKLLIYGENNRPSGVPDRFSGSSSGTSASLTITGAQAEDEADYYCNSRDSSGTHLTVFGGGTKLTVLGGGSGGC : reported percent scFv-conjugate (not liposome-bound) EphA2 binding on-rate = ?
Output line: 114

The reported numbers originate from patent US20170267768A1.
